System: HCT-15 colon
test-summary: NCI tumour cell line growth inhibition, 48 h
Exercise: state measured GI50 for each of the molecules provided.

Challenge: Give a short answer stating reported GI50 for OCc1ccc(N2CCc3cccc(F)c3C2)cc1Cl .
Response given: 10.4 µM

Challenge: Report measured GI50; entry is CCOC(=O)C(Cc1c[nH]c2c(N(CCO)CCO)cccc12)(NC(C)=O)C(=O)OCC
Response given: 182 µM

Challenge: Look up and state reported GI50 for CCNc1cc(-c2cccc(OC(F)(F)F)c2)nc2ccc(N3CCCC3)cc12
Response given: 1.71 µM

Challenge: Recall and state the measured GI50 for CC(C)c1c(-c2ccccc2)nc2c(C#N)c[nH]n2c1=O .
Response given: 31.8 µM

Challenge: Please report GI50 for the following molecule: CC(=O)c1c(C)nc(SSc2nc(C)c(C(C)=O)c(-c3ccc(Cl)cc3)c2C#N)c(C#N)c1-c1ccc(Cl)cc1
Response given: > 150 µg/mL

Challenge: Specify measured GI50 for CC(=O)Oc1ccc(C23c4ccccc4C2(OC(C)=O)c2cc(OC(C)=O)ccc23)cc1 (centres undefined) .
Response given: 3.81 µM

Challenge: Specify GI50 for CC[C@H](Nc1ncnc2nc[nH]c12)c1nc2cccc(F)c2c(=O)n1-c1ccccc1 and stop.
Response given: 37.6 µM

Challenge: For the molecule CN(CCCCCl)P(=O)(OCCS(=O)(=O)CC(NC(=O)CCC(N)C(=O)O)C(=O)NC(C(=O)O)c1ccccc1)OCC1OC(n2ccc(N)nc2=O)C(F)(F)C1O (centres undefined) , give its reported GI50.
Response given: 8.92 µM

Challenge: Note GI50 for the molecule shown: Cc1nc(-c2ccccc2)n2nc(NCCCN3CCOCC3)ncc12
Response given: 12.8 µM

---

Tested on: MDA-MB-435
test-summary: NCI tumour cell line growth inhibition, 48 h
endpoint: TGI

Challenge: Recall the reported TGI of O=C1c2cc(Cl)ccc2NC(=NC2CCCC2)C2CSCN12 (configuration not stated) when tested on MDA-MB-435.
Response given: > 100 µM

Challenge: # return TGI of Nc1nc(Cl)c(N)c(NCC2(CO)CC2)n1 (system: MDA-MB-435)
Response given: > 100 µM

Challenge: Recall the reported TGI of Cc1ccc(/C=N/n2c(-c3ccc(C)cc3)n[nH]c2=O)cc1 on MDA-MB-435 and write it down.
Response given: > 100 µM

Challenge: Quote MDA-MB-435 TGI for entry Cc1nc(CC#N)n[nH]1 .
Response given: > 100 µM

Challenge: Supply TGI measured with MDA-MB-435 for COC(=O)CCC1=C(CC(=O)OC)C(C)(OC)N=C1NC(=O)OCc1ccccc1 (configuration not stated) .
Response given: > 100 µM

Challenge: Give the observed TGI of Cc1nc(N)nc2c1CCC(O)S2 (configuration not stated) for MDA-MB-435.
Response given: 18.7 µM

Challenge: Lab note: record TGI of O=C(O)CCS/C(=C\C(SCCC(=O)O)c1ccc(Cl)cc1)c1ccc(Cl)cc1 (configuration not stated) tested on MDA-MB-435.
Response given: > 100 µM

Challenge: Give the observed TGI of COc1cc2ncn(-c3cc(OCc4ccccc4C(F)(F)F)c(C(=O)N(C)C)s3)c2cc1OC for MDA-MB-435.
Response given: > 25 µM

Challenge: Please look at CN(C(=O)Cc1ccccc1)n1cnn(CC(=O)OC(C)(C)C)c1=S and tell me its recorded TGI on MDA-MB-435.
Response given: > 10 µM

Challenge: Give reported TGI for O=C(OC1C2OC(=O)c3cc(O)c(O)c(O)c3Oc3cc4c(c(O)c3O)-c3c(cc(O)c(O)c3O)C(=O)OCC3OC(O)C(OC(=O)c5cc(O)c(O)c(O)c5Oc5cc6c(c(O)c5O)-c5c(cc(O)c(O)c5O)C(=O)OC1C(COC6=O)OC2O)C(OC(=O)c1cc(O)c(O)c(O)c1)C3OC4=O)c1cc(O)c(O)c(O)c1 (configuration not stated) (MDA-MB-435)
Response given: 42.6 µM

Challenge: Enter recorded TGI with MDA-MB-435 for CCN1CCC(O)(c2ccc(Oc3ccc(F)cc3)cc2)C(C(=O)c2ccc(Oc3ccc(F)cc3)cc2)C1 (configuration not stated) here.
Response given: 30.8 µM

Challenge: For MDA-MB-435, give TGI of the listed compound: O=S(=O)(O)c1cc(N=Nc2c(O)ccc3ccccc23)ccc1/C=C/c1ccc(N=Nc2c(O)ccc3ccccc23)cc1S(=O)(=O)O
Response given: > 100 µM

Challenge: State recorded TGI with MDA-MB-435, entry O=C(/C=C/c1ccccc1)C(Br)C(Br)c1ccccc1 (configuration not stated) , no comment.
Response given: 3.08 µM

Challenge: Fill in: TGI on MDA-MB-435, entry Cc1ncc(C(=O)Nc2ccc(CN3CCN(C)CC3)c(C(F)(F)F)c2)cc1C#Cc1cnc2cccnn12
Response given: 1.48 µM

Challenge: Please report the measured TGI for COc1ccccc1C#Cc1ccccc1C#CCCCCO tested on MDA-MB-435.
Response given: 41.8 µM

Challenge: Provide TGI, tested on MDA-MB-435, for O=C1C(Br)=C(c2ccccc2)O/C1=C/C(=O)c1ccc(Br)cc1 .
Response given: > 100 µM

Challenge: # return TGI for CCC(O)c1ccc(Br)cc1NC(=O)c1cccc(Cl)c1 (configuration not stated) , test system: MDA-MB-435
Response given: 35 µM

Challenge: Please tell me the measured TGI for Nc1[nH]nc(Nc2ccc(Cl)cc2)c1P(=O)(c1ccccc1)c1ccccc1 ; system: MDA-MB-435.
Response given: 42.8 µM

Challenge: State the measured TGI (MDA-MB-435) of c1cc2c(s1)-c1sccc1C21OCCO1
Response given: > 100 µM

Challenge: GET TGI where system = MDA-MB-435 and item = COc1cc(C2SCCCCCCCCCCSC(c3ccc(O)c(OC)c3)SCCCCCCCCCCS2)ccc1O (configuration not stated)
Response given: > 100 µM

Challenge: Report TGI from MDA-MB-435 testing of Cc1ccc(SC2C(=O)C3CC(OCc4ccccc4)C2(C)C3(C)C)cc1 (configuration not stated)
Response given: > 100 µM

Challenge: Give MDA-MB-435 TGI for the following compound: COc1cc(C(C)O)c(S(=O)(=O)CC(C)O)nn1 (configuration not stated)
Response given: > 100 µM

---

Consider the following compounds; for each one, report its TGI.
Test system: KM12 colon
test-summary: NCI tumour cell line growth inhibition, 48 h
Supply the numeric figure in µM, leaving out any unit text.

Challenge: Please give the documented TGI of O=c1c2cc(F)ccc2sc2c(N3CCNCC3)nc3ccc(F)cc3c12
Response given: 3.34

Challenge: Specify measured TGI for CCCCCCCCCCCCCCCCCC1=NC(C)(C)CN1CC(C)O (stereo unspecified) .
Response given: 19.5

Challenge: Give a short answer stating reported TGI for CCOC(=O)c1cc2cc3c4c(c2oc1=O)CCCN4CCC3 .
Response given: 61.9

---

Tested on: HOP-92 NSCLC
test-summary: NCI tumour cell line growth inhibition, 48 h; in the data active = GI50 below about 0.43 µM; inactive = the rest
Can you answer with just one of these options? active, inactive

Challenge: Returns: the outcome recorded for CC[C@H](Nc1ncnc2nc[nH]c12)c1nc2cccc(F)c2c(=O)n1-c1ccccc1 in this assay.
Response given: inactive

Challenge: Check the results log: what was the call for COc1ccccc1C#Cc1ccccc1C#CCCCCO ?
Response given: inactive

Challenge: // outcome(item) with item = Cc1nc(N)nc2c1CCC(O)S2 (centres undefined)
Response given: inactive

Challenge: Per the assay record, what outcome was assigned to Cn1c(C(=O)c2ccncc2)cc2ccccc21 ?
Response given: inactive

Challenge: What classification did COc1ccc(-c2ccncc2)cc1C(N)=O end up with in this test?
Response given: inactive

Challenge: Hey, what did the test say about CCCCCCCCCCCCCCCCCC1=NC(C)(C)CN1CC(C)O (centres undefined) ?
Response given: inactive

Challenge: # fetch the recorded call for CCCCCCCCOC(=O)CC[C@@H](C)[C@H]1CC[C@H]2[C@@H]3[C@H](OC(=O)CCN)C[C@@H]4C[C@H](OC(=O)CCN)CC[C@]4(C)[C@H]3C[C@H](OC(=O)CCN)[C@]12C here
Response given: inactive

Challenge: Fill in: this test's call for O=C(/C=C/C12c3ccccc3C(c3ccccc31)C1C(=O)NC(=O)C12)c1ccc(Cl)cc1Cl (centres undefined) is ___
Response given: inactive

Challenge: Hello, I am checking results. What call was entered for O=[N+]([O-])c1cc(Cl)c2[nH]c3c(Cl)cc([N+](=O)[O-])cc3c2c1 ?
Response given: active

Challenge: What is the recorded call for this molecule in the test? O=C(N/N=C/c1cc(Cl)cc(Cl)c1[O-])c1ccccc1O.O=C(N/N=C/c1cc(Cl)cc(Cl)c1[O-])c1ccccc1O.[Co+2]
Response given: inactive

Challenge: Fill in: this test's call for CCC(O)c1ccc(Br)cc1NC(=O)c1cccc(Cl)c1 (centres undefined) is ___
Response given: inactive

Challenge: Could you check what this test reported for COc1ccc(-c2cs/c(=N\N=C\c3ccc(O)cc3O)n2/N=C/c2ccc(O)cc2O)cc1 ?
Response given: inactive

Challenge: Which outcome did this test record for the molecule COC(=O)c1cc2c3ccccc3n3c(=O)c4cc5ccc(N(S(=O)(=O)c6ccc(C)cc6)S(=O)(=O)c6ccc(C)cc6)cc5nc4c(n1)c23 ?
Response given: inactive

Challenge: Look up the recorded call for CCOC(=O)C(Cc1c[nH]c2c(N(CCO)CCO)cccc12)(NC(C)=O)C(=O)OCC in this test.
Response given: inactive
